Measured melting point of individual entries

compound-string | melting point
CCOc1cc(N2CCC(O)CC2)ccc1[N+](=O)[O-] | 109 to 111 °C
NC(=O)c1cc(Cl)ccn1 | 157 to 159 °C
CCCc1ccc(C(=O)COc2ccc(C=O)cc2OC)cc1 | 73 to 75 °C
Cc1ccc(Oc2ccc(N)cc2)cc1 | 118 to 122 °C
Fc1ccc(CBr)c(Br)c1 | 51 to 53 °C
O=S(=O)(Cl)c1c(Cl)cccc1C(F)(F)F | 36 to 38 °C
O=C(O)c1ccc(Br)cc1OC(F)F | 133 to 135 °C
Cc1sc(N)nc1-c1ccc(Br)cc1 | 147 to 149 °C
Clc1ccc(-c2nc3ccccc3[nH]2)cn1 | 198 to 200 °C
O=C(O)c1ccc(-c2noc(=O)[nH]2)cc1 | 354 to 356 °C
